Measured pKd accompanies every entry in the list below.
# TGT: Von Hippel-Lindau disease tumor suppressor/Elongin B/Elongin C (Homo sapiens)
# ASSAY_INFO: Displacement of FAM-labeled HIF-1alpha peptide from VBC (unknown origin) by fluorescence polarization assay
Note on pKd: it is the negative log10 of concentration, concentration in mol/L.

Before answering, review these 5 worked examples.
- COMPOUND_STRUCTURE: "CC(=O)NC1(C(=O)N[C@H](C(=O)N2C[C@H](O)C[C@H]2C(=O)NCc2ccc(-c3scnc3C)cc2)C(C)(C)C)CC1"
  TGT: "Von Hippel-Lindau disease tumor suppressor/Elongin B/Elongin C (Homo sapiens)"
  REPORTED: 6.52
- COMPOUND_STRUCTURE: "CC(=O)N1CC(C(=O)N[C@H](C(=O)N2C[C@H](O)C[C@H]2C(=O)NCc2ccc(-c3scnc3C)cc2)C(C)(C)C)C1"
  TGT: "Von Hippel-Lindau disease tumor suppressor/Elongin B/Elongin C (Homo sapiens)"
  REPORTED: 5.31
- COMPOUND_STRUCTURE: "Cc1ncsc1-c1ccc(CNC(=O)[C@@H]2C[C@@H](O)CN2C(=O)[C@@H](NC(=O)C2CC2)C(C)(C)C)cc1"
  TGT: "Von Hippel-Lindau disease tumor suppressor/Elongin B/Elongin C (Homo sapiens)"
  REPORTED: 6.77
- COMPOUND_STRUCTURE: "Cc1ncsc1-c1ccc(CNC(=O)[C@@H]2C[C@@H](O)CN2C(=O)[C@@H](NC(=O)C2CC(=O)C2)C(C)(C)C)cc1"
  TGT: "Von Hippel-Lindau disease tumor suppressor/Elongin B/Elongin C (Homo sapiens)"
  REPORTED: 6.30
- COMPOUND_STRUCTURE: "CC(=O)C1(C(=O)N[C@H](C(=O)N2C[C@H](O)C[C@H]2C(=O)NCc2ccc(-c3scnc3C)cc2)C(C)(C)C)CC1"
  TGT: "Von Hippel-Lindau disease tumor suppressor/Elongin B/Elongin C (Homo sapiens)"
  REPORTED: 6.77

Memo: "Cc1ncsc1-c1ccc(CNC(=O)[C@@H]2C[C@@H](O)CN2C(=O)[C@@H](NC(=O)OC(C)(C)C)C(C)(C)C)cc1" , reported pKd: 5.19

Memo: "Cc1ncsc1-c1ccc(CNC(=O)[C@@H]2C[C@@H](O)CN2C(=O)[C@@H](NC(=O)C(Cl)(Cl)Cl)C(C)(C)C)cc1" , reported pKd: 6.70

Memo: "Cc1ncsc1-c1ccc(CNC(=O)[C@@H]2C[C@@H](O)CN2C(=O)[C@@H](NC(=O)C2CCC2)C(C)(C)C)cc1" , reported pKd: 6.60

----------
# TGT: Von Hippel-Lindau disease tumor suppressor/Elongin B/Elongin C (Homo sapiens) (UniProt P40337+Q15370+Q15369)
# Sequence (P40337 whole entry, looked up): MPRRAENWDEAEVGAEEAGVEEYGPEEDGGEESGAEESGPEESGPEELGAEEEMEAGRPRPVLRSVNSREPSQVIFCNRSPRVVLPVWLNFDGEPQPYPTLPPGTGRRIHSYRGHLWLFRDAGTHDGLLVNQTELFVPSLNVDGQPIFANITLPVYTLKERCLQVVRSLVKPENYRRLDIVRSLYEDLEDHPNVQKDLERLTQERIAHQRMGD
# Sequence (Q15369 whole entry, looked up): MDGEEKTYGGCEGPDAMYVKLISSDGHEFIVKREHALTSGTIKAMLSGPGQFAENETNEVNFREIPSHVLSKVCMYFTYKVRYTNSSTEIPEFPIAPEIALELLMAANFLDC
# Sequence (Q15370 whole entry, looked up): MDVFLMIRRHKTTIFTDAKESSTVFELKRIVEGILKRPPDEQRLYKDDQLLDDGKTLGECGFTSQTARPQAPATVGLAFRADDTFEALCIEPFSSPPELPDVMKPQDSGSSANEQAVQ
# ASSAY_INFO: Inhibition of VBC in human HeLa cells assessed as HIF-1alpha stabilization by measuring HIF-1alpha protein levels at 50 uM after 2 hrs by Western blot analysis
# Assay type: cell-based
# Design: scale not given: the % may be the effect or the level left
Measured Activity accompanies every entry in the list below.
The figure you give is taken to be in %; do not add the unit.

- MOLECULE: "Cc1ncsc1-c1ccc(CNC(=O)[C@@H]2C[C@@H](O)CN2C(=O)[C@@H](NC(=O)C2(F)CC2)C(C)O)cc1 (single isomer, unassigned)"
  Activity, %: 46

Memo: "CCC(=O)N[C@H](C(=O)N1C[C@H](O)C[C@H]1C(=O)NCc1ccc(-c2scnc2C)cc1)C(C)(C)C" , reported Activity: 98

Memo: "CC(=O)C1(C(=O)N[C@H](C(=O)N2C[C@H](O)C[C@H]2C(=O)NCc2ccc(-c3scnc3C)cc2)C(C)(C)C)CC1" , reported Activity: 156

Memo: "CC(=O)N[C@@H](C)C(=O)N1C[C@H](O)C[C@H]1C(=O)NCc1ccc(-c2scnc2C)cc1" , reported Activity: 12

Memo: "Cc1ncsc1-c1ccc(CNC(=O)[C@@H]2C[C@@H](O)CN2C(=O)[C@@H](NC(=O)C(F)(F)F)C(C)(C)C)cc1" , reported Activity: 95

Memo: "CC(=O)N1CC(C(=O)N[C@H](C(=O)N2C[C@H](O)C[C@H]2C(=O)NCc2ccc(-c3scnc3C)cc2)C(C)(C)C)C1" , reported Activity: 12

Memo: "Cc1ncsc1-c1ccc(CNC(=O)[C@@H]2C[C@@H](O)CN2C(=O)[C@@H](NC(=O)C2(C#N)CC2)C(C)(C)C)cc1" , reported Activity: 190
